- assay.info: soluble on expression in E. coli; label from the status in PepcDB or PDB records
property.name: soluble on expression in E. coli

Example entries begin here.
sequence.content: MGSDKIHHHHHHMKSLIHCLFLIPLFFVQAHAEVTITLPDSAEPLLLNGKDITSHQLISQNGPQQLVFNARASYREFGQQKRFVSETLIVTFSGENNHYRVSLPKISSPKSAEKFNDVPQIGLTDTQGNKVAYKIDKLLKDGIQIGRNYSEEIKAYNIGQGVAAIAINQPVQMAPSTSSSASSGAASPAATSTALAAQQTTAPQGAQPVGQPTSQPNTQPVSQTGTPRRDQINVGQMLDFWYEQADEATREAFKKRIGLIEQAQRDGH
soluble on expression in E. coli: not soluble
//
sequence.content: MKKVIIAGNGPSLKEIDYSRLPNDFDVFRCNQFYFEDKYYLGKKCKAVFYNPSLFFEQYYTLKHLIQNQEYETELIMCSNYNQAHLENENFVKTFYDYFPDAHLGYDFFKQLKDFNAYFKFHEIQFNQRITSGVYMCAVAIALGYKEIYLSGIDFYQNGSSYAFDTKQKNLLKLAPNFKNDNSHYIGHSKNTDIKALEFLEKTYKIKLYCLCPNSLLANFIGLAPNLNSNFIIQEKNNYTKDILIPSSEAYGKFSKNINFKKIKIKENIYYKLIKDLLRLPSDIKHYFKGK
soluble on expression in E. coli: soluble
//
sequence.content: MQPTLGAQAGSMLFRDASGRYCASLAGYRFLSAFQPIFYKGGSLFGHEALLRVVDEGGEWRPPDRFLASLAPGMALEADRLARLIHVRNFAQSGQGGCLCLNLMPATVQEDQSGRTHLPLLNSMLQSVELDSGGVIFELPEFDVEHHGQPLLQGMRHAADMGFGLAVDDFGALPARRDKMGELCPDIIKIDRSLLLDYMAGQTQRLPALLEFGWQIGSRMLVEGIETAEQLEAMRALGVELYQGYYLGRPGELPVLRQL
soluble on expression in E. coli: not soluble
//
sequence.content: MLLQEELEQRTVSVSIQAAKLSGRVLRAAIAAVLQKMEQERTMPKVGRNSMKRLTYKDPGANTIEVSGRIRSFERYARKHQVRYHIEKELGTDPPKWTVYFKANQADALTAAFKEYTKKDLTRSTRPSLLIQLHKFKELAQSLGRDRVKNKEHGGPER
soluble on expression in E. coli: not soluble

stdin: Provide soluble on expression in E. coli value for the following sequence: `MGSDKIHHHHHHMMEGKDDADLFADLGLSESIASIPSYTFIRDGLNRIFASSNNIWNVLIGTRLTPPKPLSDYDLVHIHNPVPLAGMVSVALHCRIKGIPYCVTTHGISKVPKIPEELGLSRGQRIVFNHGFLRAYKNVLSNATHLFALSEGDQDTITEWFSDQSVSVLPNGVDLNVSPEAPEVDTKVDLPDKPVLLFVGRIMASKGVDDLLEAFSLLEHDCKLIIVGPMRDEHFKDQIHTLSDDVEYRGYVEQAELDALYRRADLFVFPTRSDVFPLVTLEAMAAGTPVVSTTVGGLPEQIPDQVGRLVPPKEPKTFAAAVDGMLSNEQLRTEMGRAGKSLVEERYSWEAVAKAAVTEYYRIVN`
stdout: not soluble

stdin: Provide soluble on expression in E. coli value for the following sequence: `MNDLEKKFYELPELPYPYDALEPHISREQLTIHHQKHHQAYVDGANALLRKLDEARESDTDVDIKAALKELSFHVGGYVLHLFFWGNMGPADECGGEPSGKLAEYIEKDFGSFERFRKEFSQAAISAEGSGWAVLTYCQRTDRLFIMQVEKHNVNVIPHFRILLVLDVWEHAYYIDYRNVRPDYVEAFWNIVNWKEVEKRFEDIL`
stdout: soluble

stdin: Provide soluble on expression in E. coli value for the following sequence: `MQQLINSLFMEAFANPWLAEQEDQARLDLAQLVAEGDRLAFSTDSYVIDPLFFPGGNIGKLAICGTANDVAVSGAIPRYLSCGFILEEGLPMETLKAVVTSMAETARAAGIAIVTGDTKVVQRGAVDKLFINTAGMGAIPANIHWGAQTLTAGDVLLVSGTLGDHGATILNLREQLGLDGELVSDCAVLTPLIQTLRDIPGVKALRDATRGGVNAVVHEFAAACGCGIELSEAALPVKPAVRGVCELLGLDALNFANEGKLVIAVERNAAEQVLAALHSHPLGKDAALIGEVVERKGVRLAGLYGVKRTLDLPHAEPLPRIC`
stdout: not soluble

stdin: Provide soluble on expression in E. coli value for the following sequence: `MKKDQYFNLEVNFLSNDNIVRMMMELDAAQSLGIYMMLLTHLRKADNYEASCCPLCMGAFARMYDLDAGVLQRVLREFDLFVLDEERQMFRSPYLDRVMARLEERRMINVANGKKGGRPKRMESTPETPMDKGEKPNQNQKSREEERRVTTVVKDNNSSNEEKTEKENSAAASDRLQIVSPPEDRGQLPLQPVLPWEMLVDQMAESESYMESMAMHSCMGKLFVERQEEVIAAFKEHIRRFGREDGLLFLRDVKLYFGNYLSPGGRPAQELKKRLLGSCRQSAEEELYRFEQLIGGQRTYLGHPIPKDAPPRPDRSAVWDEVHWKWGN`
stdout: not soluble

stdin: Provide soluble on expression in E. coli value for the following sequence: `MGHHHHHHHHHHSSGHIEGRHMAAVTLHLRAETKPLEARAALTPTTVKKLIAKGFKIYVEDSPQSTFNINEYRQAGAIIVPAGSWKTAPRDRIIIGLKEMPETDTFPLVHEHIQFAHCYKDQAGWQNVLMRFIKGHGTLYDLEFLENDQGRRVAAFGFYAGFAGAALGVRDWAFKQTHSDDEDLPAVSPYPNEKALVKDVTKDYKEALATGARKPTVLIIGALGRCGSGAIDLLHKVGIPDANILKWDIKETSRGGPFDEIPQADIFINCIYLSKPIAPFTNMEKLNNPNRRLRTVVDVSADTTNPHNPIPIYTVATVFNKPTVLVPTTAGPKLSVISIDHLPSLLPREASEFFSHDLLPSLELLPQRKTAPVWVRAKKLFDRHCARVKRSSRL`
stdout: soluble

stdin: Provide soluble on expression in E. coli value for the following sequence: `SEVLRPQLIRIDGRNYRKNPVQEQTYQHEEDEEDFYQGSMECADEPCDAYEVEQTPQGFRSTLRAPSLLYKHIVGKRGDTRKKIEMETKTSISIPKPGQDGEIVITGQHRNGVISARTRIDVLLDTFRRKQPFTHFLAFFLNEVEVQEGFLRFQEEVLAKCSMDHGVDSSIFQNPKKLHLTIGMLVLLSEEEIQQTCEMLQQCKEEFINDISGGKPLEVEMAGIEYMNDDPGMVDVLYAKVHMKDGSNRLQELVDRVLERFQASGLIVKEWNSVKLHATVMNTLFRKDPNAEGRYNLYTAEGKYIFKERESFDGRNILKLFENFYFGSLKLNSIHISQRFTVDSFGNYASCGQIDFS`
stdout: soluble
